# assayed target: Acetylcholinesterase (Rattus norvegicus)
# Sequence (P37136 whole entry): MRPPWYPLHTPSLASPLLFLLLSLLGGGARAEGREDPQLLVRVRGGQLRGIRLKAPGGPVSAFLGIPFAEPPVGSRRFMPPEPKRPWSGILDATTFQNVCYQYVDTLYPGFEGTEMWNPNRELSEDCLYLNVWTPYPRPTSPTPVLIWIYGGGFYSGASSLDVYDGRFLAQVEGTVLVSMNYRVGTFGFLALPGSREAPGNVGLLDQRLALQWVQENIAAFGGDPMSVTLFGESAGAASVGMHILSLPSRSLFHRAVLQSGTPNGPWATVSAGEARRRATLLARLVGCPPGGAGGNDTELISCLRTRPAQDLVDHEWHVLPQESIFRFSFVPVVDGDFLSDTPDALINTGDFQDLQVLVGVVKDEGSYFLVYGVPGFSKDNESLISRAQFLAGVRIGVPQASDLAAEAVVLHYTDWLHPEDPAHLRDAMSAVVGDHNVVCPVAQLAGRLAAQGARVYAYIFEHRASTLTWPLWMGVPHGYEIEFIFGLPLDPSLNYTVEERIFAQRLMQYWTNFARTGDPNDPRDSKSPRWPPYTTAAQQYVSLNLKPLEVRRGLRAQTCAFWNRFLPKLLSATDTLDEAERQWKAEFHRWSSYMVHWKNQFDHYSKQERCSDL
# method description: In vitro inhibition against acetylcholinesterase in rat striatal
# Assay type: functional
readout: pIC50
The value called pIC50 is obtained by taking minus log10 of the concentration in mol/L.

Fill in the blank: the reported pIC50 of OC1CCCc2nc3ccccc3c(NCc3ccccc3)c21 (stereo unspecified) is ____.
4.49

---

Lab note: pIC50 readings collected with Sodium-dependent dopamine transporter (Rattus norvegicus, UniProt P23977) for the following compounds.
Sequence (P23977 whole entry): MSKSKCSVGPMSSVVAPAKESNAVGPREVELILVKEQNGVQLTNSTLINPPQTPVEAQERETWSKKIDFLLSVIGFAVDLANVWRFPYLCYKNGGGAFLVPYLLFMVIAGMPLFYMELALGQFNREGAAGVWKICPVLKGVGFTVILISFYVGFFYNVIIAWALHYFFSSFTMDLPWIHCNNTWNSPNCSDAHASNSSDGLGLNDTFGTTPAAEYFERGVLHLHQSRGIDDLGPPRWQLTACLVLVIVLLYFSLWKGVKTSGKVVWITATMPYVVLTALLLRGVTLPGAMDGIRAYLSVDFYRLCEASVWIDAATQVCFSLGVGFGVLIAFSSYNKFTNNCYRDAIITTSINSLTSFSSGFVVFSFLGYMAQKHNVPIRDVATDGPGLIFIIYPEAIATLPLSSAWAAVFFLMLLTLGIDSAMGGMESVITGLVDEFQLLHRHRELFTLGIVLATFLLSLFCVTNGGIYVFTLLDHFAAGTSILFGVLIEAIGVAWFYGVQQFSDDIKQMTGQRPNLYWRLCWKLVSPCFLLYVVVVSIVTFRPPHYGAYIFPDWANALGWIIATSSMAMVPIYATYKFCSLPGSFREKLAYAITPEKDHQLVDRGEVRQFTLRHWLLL
The value called pIC50 is obtained by taking minus log10 of the concentration in mol/L.

Short answer please: pIC50, Sodium-dependent dopamine transporter (Rattus norvegicus, UniProt P23977), entry OC1CCCc2nc3ccccc3c(NCc3ccc(Cl)cc3)c21 (stereo not given)
5.01

Try this compound next: OC1CCCc2nc3ccccc3c(NCc3ccccc3C(F)(F)F)c21 (stereo not given)
6.02

Try this compound next: COc1ccccc1CNc1c2c(nc3ccccc13)CCCC2O (stereo not given)
6.14

Try this compound next: O=C(O)/C=C/C(=O)O.OC1CCCc2nc3ccccc3c(NCc3cccs3)c21 (stereo not given)
5.62

Try this compound next: OC1CCCc2nc3ccccc3c(NCc3ccccc3F)c21 (stereo not given)
6.39

Try this compound next: OC1CCCc2nc3ccccc3c(NCc3ccccc3)c21 (stereo not given)
6.52

Try this compound next: COc1ccc(CNc2c3c(nc4ccccc24)CCCC3O)cc1 (stereo not given)
5.28

Try this compound next: OC1CCCc2nc3ccccc3c(NCc3ccc(F)cc3)c21 (stereo not given)
5.54

Try this compound next: OC1CCCc2nc3ccccc3c(NCc3ccccc3Cl)c21 (stereo not given)
6.89

Try this compound next: Cc1cccc(CNc2c3c(nc4ccccc24)CCCC3O)c1 (stereo not given)
6.29

Try this compound next: OC1CCCc2nc3cc(F)ccc3c(NCc3ccccc3C(F)(F)F)c21 (stereo not given)
6.51

Try this compound next: Cc1ccccc1CNc1c2c(nc3ccccc13)CCCC2O (stereo not given)
6.60

Try this compound next: OC1CCCc2nc3ccccc3c(NCc3ccc(C(F)(F)F)cc3)c21 (stereo not given)
5.62

Try this compound next: OC1CCCc2nc3cc(Cl)ccc3c(NCc3ccccc3)c21 (stereo not given)
5.89

Try this compound next: COc1cccc(CNc2c3c(nc4ccccc24)CCCC3O)c1 (stereo not given)
5.68

Try this compound next: OC1CCCc2nc3ccccc3c(NCCc3ccccc3)c21 (stereo not given)
5.33

Try this compound next: OC1CCCc2nc3cc(Cl)ccc3c(NCc3ccc(F)cc3)c21 (stereo not given)
5.39

Try this compound next: OC1CCCc2nc3ccccc3c(NCc3cccc(F)c3)c21 (stereo not given)
6.52

Try this compound next: OC1CCCc2nc3ccccc3c(NCCCC(c3ccccc3)c3ccccc3)c21 (stereo not given)
5.68

Try this compound next: Cc1ccc(CNc2c3c(nc4ccccc24)CCCC3O)cc1 (stereo not given)
5.66

Try this compound next: OC1CCCc2nc3ccccc3c(NCc3cccc(C(F)(F)F)c3)c21 (stereo not given)
5.62

---

# assayed target: Acetylcholinesterase (Rattus norvegicus)
pIC50: −log10 of the molar value.
Use 5 as the dividing line for pIC50, with the line itself on the 1 (yes) side and lower values as 0 (no).

// inclusive: pIC50 at least 5? input: OC1CCCc2nc3ccccc3c(NCCCC(c3ccccc3)c3ccccc3)c21 (stereo not drawn)
0 (no)

Try this compound next: Nc1c2c(nc3cc(C(F)(F)F)ccc13)CCCC2O (stereo not drawn)
1 (yes)

Try this compound next: Nc1c2c(nc3ccc(Cl)cc13)CCCC2O (stereo not drawn)
0 (no)

Try this compound next: OC1CCCc2nc3ccccc3c(NCCCOc3ccccc3)c21 (stereo not drawn)
1 (yes)

Try this compound next: Nc1c2c(nc3ccccc13)CCC2O (stereo not drawn)
1 (yes)

Try this compound next: O=C(O)/C=C/C(=O)O.OC1CCCc2nc3ccccc3c(NCc3cccs3)c21 (stereo not drawn)
0 (no)

Try this compound next: COc1ccccc1CNc1c2c(nc3ccccc13)CCCC2O (stereo not drawn)
0 (no)

Try this compound next: OC1CCCc2nc3ccccc3c(NCc3ccccc3F)c21 (stereo not drawn)
0 (no)

Try this compound next: COc1cccc(CNc2c3c(nc4ccccc24)CCCC3O)c1 (stereo not drawn)
0 (no)

---

# assayed target: Acetylcholinesterase (Rattus norvegicus)
Provide the reported pIC50 of each item.
The value called pIC50 is obtained by taking minus log10 of the concentration in mol/L.

Fill in the blank: the reported pIC50 of OC1CCCc2nc3ccccc3c(NCc3ccc(Cl)cc3)c21 (centres undefined) is ____.
4.57

Try this compound next: OC1CCCc2nc3ccccc3c(NCCCC(c3ccc(F)cc3)c3ccc(F)cc3)c21 (centres undefined)
4.06

Try this compound next: CNc1c2c(nc3ccccc13)CCCC2O (centres undefined)
5.75

Try this compound next: OC1CCCc2nc3ccccc3c(NCCc3ccccc3)c21 (centres undefined)
5.47

Try this compound next: O=C(O)/C=C/C(=O)O.OC1CCCc2nc3ccccc3c(NCCCC(c3cccc(F)c3)c3cccc(F)c3)c21 (centres undefined)
4.20

Try this compound next: OC1CCCc2nc3cc(C(F)(F)F)ccc3c(NCc3ccccc3)c21 (centres undefined)
4.17

Try this compound next: OC1CCCc2nc3cc(Cl)ccc3c(NCc3ccc(F)cc3)c21 (centres undefined)
6.08

Try this compound next: OC1CCCc2nc3ccccc3c(NCc3ccc(C(F)(F)F)cc3)c21 (centres undefined)
4.74

Try this compound next: OC1CCCc2nc3ccccc3c(NCc3ccc(F)cc3)c21 (centres undefined)
4.78

Try this compound next: Cc1cccc(CNc2c3c(nc4ccccc24)CCCC3O)c1 (centres undefined)
4.61

Try this compound next: Nc1c2c(nc3cc(F)ccc13)CCCC2O (centres undefined)
6.53

Try this compound next: COc1ccc2c(N)c3c(nc2c1)CCCC3O (centres undefined)
5.70

Try this compound next: CN(C)CCNc1c2c(nc3ccccc13)CCCC2O (centres undefined)
5.11

Try this compound next: OC1CCCc2nc3ccccc3c(NCc3ccccc3Cl)c21 (centres undefined)
4.99

Try this compound next: OC1CCCc2nc3ccccc3c(NCc3cccc(Cl)c3)c21 (centres undefined)
4.88

Try this compound next: Cc1ccccc1CNc1c2c(nc3ccccc13)CCCC2O (centres undefined)
5.23

Try this compound next: OC1CCCc2nc3cc(F)ccc3c(NCc3ccccc3)c21 (centres undefined)
5.06

Try this compound next: OC1CCCc2nc3cc(Cl)ccc3c(NCc3ccccc3)c21 (centres undefined)
5.89

Try this compound next: Nc1c2c(nc3ccccc13)CCCC2O (centres undefined) [VELNACRINE]
5.40

Try this compound next: Nc1c2c(nc3cc(Cl)ccc13)CCCC2O (centres undefined)
7.93

Try this compound next: OC1CCCc2nc3ccccc3c(NCc3cccc(F)c3)c21 (centres undefined)
4.88

Try this compound next: OC1CCCc2nc3cc(F)ccc3c(NCc3ccccc3C(F)(F)F)c21 (centres undefined)
4.70

Try this compound next: Cc1ccc(CNc2c3c(nc4ccccc24)CCCC3O)cc1 (centres undefined)
4.68

Try this compound next: OC1CCCc2nc3ccccc3c(NCc3cccc(C(F)(F)F)c3)c21 (centres undefined)
4.85

---

# assayed target: Sodium-dependent serotonin transporter (Rattus norvegicus, UniProt P31652)
# Sequence (P31652 whole entry): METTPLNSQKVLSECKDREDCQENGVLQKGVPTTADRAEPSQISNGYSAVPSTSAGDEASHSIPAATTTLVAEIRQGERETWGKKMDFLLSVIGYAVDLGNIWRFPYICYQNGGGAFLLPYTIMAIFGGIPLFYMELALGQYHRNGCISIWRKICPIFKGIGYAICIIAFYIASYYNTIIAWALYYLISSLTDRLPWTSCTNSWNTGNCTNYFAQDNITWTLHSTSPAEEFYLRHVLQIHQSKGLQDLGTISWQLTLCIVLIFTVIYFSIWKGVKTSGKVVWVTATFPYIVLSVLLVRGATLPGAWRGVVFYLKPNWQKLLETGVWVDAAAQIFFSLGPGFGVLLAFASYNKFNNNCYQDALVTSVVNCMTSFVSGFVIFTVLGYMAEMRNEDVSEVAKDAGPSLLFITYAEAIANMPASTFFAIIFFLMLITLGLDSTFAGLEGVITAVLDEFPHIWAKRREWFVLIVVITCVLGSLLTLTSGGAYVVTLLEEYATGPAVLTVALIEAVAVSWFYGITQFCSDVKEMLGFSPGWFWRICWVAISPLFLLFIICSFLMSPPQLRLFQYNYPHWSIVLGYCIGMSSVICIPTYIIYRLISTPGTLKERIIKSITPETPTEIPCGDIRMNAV
Field 'label' (enum: Yes / No). Set to Yes when IC50 is strictly under 9 µM; else No.

Consider OC1CCCc2nc3ccccc3c(NCc3ccc(Cl)cc3)c21 (stereo not given) . Does its IC50 lie strictly below 9 µM?
Yes

Try this compound next: Cc1cccc(CNc2c3c(nc4ccccc24)CCCC3O)c1 (stereo not given)
Yes

Try this compound next: Nc1c2c(nc3cc(Cl)ccc13)CCCC2O (stereo not given)
No

Try this compound next: COc1cccc(CNc2c3c(nc4ccccc24)CCCC3O)c1 (stereo not given)
Yes

Try this compound next: OC1CCCc2nc3ccccc3c(NCc3ccccc3F)c21 (stereo not given)
No

Try this compound next: OC1CCCc2nc3cc(F)ccc3c(NCc3ccccc3C(F)(F)F)c21 (stereo not given)
No

Try this compound next: OC1CCCc2nc3ccccc3c(NCc3ccccc3C(F)(F)F)c21 (stereo not given)
Yes

Try this compound next: COc1ccccc1CNc1c2c(nc3ccccc13)CCCC2O (stereo not given)
No

Try this compound next: O=C(O)/C=C/C(=O)O.OC1CCCc2nc3ccccc3c(NCc3cccs3)c21 (stereo not given)
No

Try this compound next: OC1CCCc2nc3cc(Cl)ccc3c(NCc3ccccc3)c21 (stereo not given)
No

Try this compound next: OC1CCCc2nc3ccccc3c(NCc3ccccc3)c21 (stereo not given)
No

Try this compound next: OC1CCCc2nc3ccccc3c(NCc3ccc(F)cc3)c21 (stereo not given)
No

Try this compound next: COc1ccc(CNc2c3c(nc4ccccc24)CCCC3O)cc1 (stereo not given)
Yes

Try this compound next: OC1CCCc2nc3ccccc3c(NCCc3ccccc3)c21 (stereo not given)
Yes

Try this compound next: Cc1ccc(CNc2c3c(nc4ccccc24)CCCC3O)cc1 (stereo not given)
Yes

Try this compound next: OC1CCCc2nc3ccccc3c(NCc3cccc(C(F)(F)F)c3)c21 (stereo not given)
Yes

Try this compound next: CNc1c2c(nc3ccccc13)CCCC2O (stereo not given)
No

Try this compound next: OC1CCCc2nc3ccccc3c(NCc3ccc(C(F)(F)F)cc3)c21 (stereo not given)
Yes

Try this compound next: OC1CCCc2nc3ccccc3c(NCc3cccc(F)c3)c21 (stereo not given)
Yes

Try this compound next: CCCNc1c2c(nc3ccccc13)CCCC2O (stereo not given)
No

Try this compound next: OC1CCCc2nc3ccccc3c(NCCCC(c3ccccc3)c3ccccc3)c21 (stereo not given)
Yes

Try this compound next: OC1CCCc2nc3ccccc3c(NCc3ccccc3Cl)c21 (stereo not given)
No

Try this compound next: OC1CCCc2nc3cc(Cl)ccc3c(NCc3ccc(F)cc3)c21 (stereo not given)
Yes

Try this compound next: Nc1c2c(nc3ccccc13)CCCC2O (stereo not given)
No
